All figures here come from PubChem BioAssay AID1159580.

# PROTOCOL: chemical genetic growth profiling, strain panel (AID 1159580);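 further: tested at 20 µM; growth read once vehicle control cultures reached saturation at 30 °C; lower values mean less growth of the strain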
# REPORTED CONDITIONS: S. cerevisiae deletion strains, growth OD, strain wtn01
In all, about 5,500 compounds went through this assay and about 2,000 (36%) were called active. Inconclusive results (about 18%) are left out. No stated cut-off is given here; in the data, active means normalized growth mostly below about 0.91 (no sharp cut-off); inconclusive means no clear call, values can overlap the other calls; inactive means mostly above about 0.92. The list shows a part of the results.
Outcome codes: active, inactive

# MOLECULE, CATEGORY
records = [
    ("CCN(CC)C(=S)SSC(=S)N(CC)CC", "active"),
    ("C[N+](C)(C)CCOP(=O)([O-])OP(=O)(O)OC[C@H]1OC(n2ccc(N)nc2=O)[C@H](O)[C@@H]1O (stereo partly specified)", "inactive"),
    ("Nc1nc2[nH]c(=O)c(=O)[nH]c2c(=O)[nH]1", "inactive"),
    ("CC1(C)C2CC[C@]3(C)C(C(=O)C=C4[C@@H]5C[C@@](C)(C(=O)O)CC[C@]5(C)CC[C@]43C)[C@@]2(C)CC[C@@H]1O (stereo partly specified)", "inactive"),
    ("CCCCOc1ccc(CC(=O)NO)cc1", "inactive"),
    ("COc1ccc(C[C@H]2NC[C@H](O)[C@H]2OC(C)=O)cc1", "active"),
]
